Target chain: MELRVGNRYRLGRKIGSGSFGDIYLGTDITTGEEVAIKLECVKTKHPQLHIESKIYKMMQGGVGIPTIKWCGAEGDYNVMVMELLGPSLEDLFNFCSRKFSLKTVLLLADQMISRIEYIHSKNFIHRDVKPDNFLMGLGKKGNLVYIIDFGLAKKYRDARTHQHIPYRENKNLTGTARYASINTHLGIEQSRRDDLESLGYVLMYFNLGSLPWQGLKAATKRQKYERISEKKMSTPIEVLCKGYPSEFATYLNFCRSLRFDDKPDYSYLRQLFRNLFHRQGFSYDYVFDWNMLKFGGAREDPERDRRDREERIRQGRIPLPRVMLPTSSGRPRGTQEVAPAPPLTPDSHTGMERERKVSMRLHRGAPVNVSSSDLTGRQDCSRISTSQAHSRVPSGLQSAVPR
Outcome measure: IC50 (nM)
Write down the numeric answer in nM and omit the unit.

q: Record request: IC50 value, item O=C(CSc1nccc(=O)n1Cc1ccc(C(F)(F)F)cc1)Nc1nc2ccc(C(F)(F)F)cc2s1
a: 345

----------
biological target: UniProt:P48730
Outcome measure: pIC50
Quick note: pIC50 values are minus log10 of concentrations in mol/L.

q: Which value of pIC50 has been reported for O=C(CSc1nccc(=O)n1Cc1ccc(C(F)(F)F)cc1)Nc1nc2ccc(C(F)(F)F)cc2s1 in the records?
a: 6.30

----------
molecular target: His-DrCK1δB (Danio rerio)
Sequence (Q6P3K7 whole entry): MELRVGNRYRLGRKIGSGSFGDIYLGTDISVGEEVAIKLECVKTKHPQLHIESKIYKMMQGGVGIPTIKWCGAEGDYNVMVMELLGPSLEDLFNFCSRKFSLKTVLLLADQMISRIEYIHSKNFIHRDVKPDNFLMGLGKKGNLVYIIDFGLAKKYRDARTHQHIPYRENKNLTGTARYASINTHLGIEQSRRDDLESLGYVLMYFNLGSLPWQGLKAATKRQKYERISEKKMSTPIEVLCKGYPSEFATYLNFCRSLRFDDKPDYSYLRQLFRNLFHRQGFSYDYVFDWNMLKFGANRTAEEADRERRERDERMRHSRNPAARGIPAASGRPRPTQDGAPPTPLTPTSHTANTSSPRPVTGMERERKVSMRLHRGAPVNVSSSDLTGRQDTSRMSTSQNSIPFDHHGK
Outcome measure: IC50 (nM)
Write the answer as a number in nM, unit excluded.

q: Returns the measured IC50 for the input compound. Input: O=C(CSc1nccc(=O)n1Cc1ccc(C(F)(F)F)cc1)Nc1nc2ccc(C(F)(F)F)cc2s1
a: 270

----------
molecular target: CK1ε (Homo sapiens); test: initial IC50 determination in in vitro kinase assays, prior to standardization; assay type: biochemical; conditions: marked * not published, read-out: IC50 values CK1ε
Outcome measure: IC50 (nM)
Answer in nM, number only, no unit symbol.

q: Which IC50 value is on record for O=C(CSc1nccc(=O)n1Cc1ccc(C(F)(F)F)cc1)Nc1nc2ccc(C(F)(F)F)cc2s1 [G2-2] ?
a: 926

----------
target: CK1δ (TV1) (Homo sapiens); experiment: initial IC50 determination in in vitro kinase assays, prior to standardization; assay type: biochemical; details: not published
Sequence (P48730 whole entry): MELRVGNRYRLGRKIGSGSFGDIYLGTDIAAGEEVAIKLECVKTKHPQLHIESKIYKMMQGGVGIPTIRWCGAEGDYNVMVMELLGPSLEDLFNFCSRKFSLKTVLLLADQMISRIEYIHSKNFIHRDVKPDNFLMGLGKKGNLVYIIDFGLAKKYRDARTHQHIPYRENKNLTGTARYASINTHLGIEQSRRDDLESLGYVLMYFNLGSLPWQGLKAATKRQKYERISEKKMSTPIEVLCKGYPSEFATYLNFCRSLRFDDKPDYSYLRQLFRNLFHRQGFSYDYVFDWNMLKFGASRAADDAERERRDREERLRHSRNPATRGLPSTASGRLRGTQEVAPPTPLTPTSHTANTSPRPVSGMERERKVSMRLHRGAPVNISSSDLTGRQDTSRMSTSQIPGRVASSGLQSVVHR
Outcome measure: IC50

These solved cases illustrate the format of a correct answer.
COc1cccc(-n2c(SCC(=O)Nc3nc4ccc(C(F)(F)F)cc4s3)nccc2=O)c1 | 1.4 µM
CC(C)n1c(SCC(=O)Nc2nc3ccc(C(F)(F)F)cc3s2)nc2c(c1=O)SCC2 | 0.38 µM
COc1ccc(-n2c(SCC(=O)Nc3nc4ccc(C(F)(F)F)cc4s3)nccc2=O)cc1 | 0.84 µM

Now consider a different molecule.
q: Name the recorded IC50 for COc1ccccc1-n1c(SCC(=O)Nc2nc3ccc(C(F)(F)F)cc3s2)nccc1=O .
a: 0.97 µM

----------
target: GST-humCK1δ^TV1 (Homo sapiens, UniProt P48730)
Sequence (P48730 whole entry): as above
Outcome measure: Ki (nM)
Hi! Could you send only the number? It should be in nM, unit omitted.

q: Request: Ki, test system GST-humCK1δ^TV1 (Homo sapiens, UniProt P48730), entry O=C(CSc1nccc(=O)n1Cc1ccc(C(F)(F)F)cc1)Nc1nc2ccc(C(F)(F)F)cc2s1
a: 251
